- TARGET OR SYSTEM: T1, recombinant human IL4Rα-his protein (in house made) (human, UniProt P24394 26-232, limits assumed)
- T1 construct: also called Human IL4Ra-his
- ASSAY: SPR (Biacore), antibody captured, IL4Rα-his flowed
pKd: −log10 of the molar value.
PROPERTY NAME: pKd

BINDER	PROPERTY NAME	NUMERIC VALUE
mouse antibody B1D2F7D3B5 (antibody, V domains shown, Mouse hybridoma mAb) VH: EVKLVESGGGLVKPGGSLKLSCAASGFTFSSYAMSWVRQTPEKRLEWVASISSGDSTYYLDSVKGRFTISRDNAMNILYLQMSSLRSEDTAVYYCERSGGSAPYWGQGTLVSVSA VL: QIVLTQSPAIMSASPGEMVTISCSASSSVSYMYWYQQKPGSSPKPWIYRTSNLASGVPARFSGSGSGTSYSLTISSMEAEDAATYYCQQYHSFPLTFGAGTKLELK	pKd	9.21
mouse antibody C2B2F7B7 (antibody, V domains shown, Mouse hybridoma mAb) VH: EVQLVESGGGLVQPGGSLKLSCAASGFTFSTYGMSWVRQTPDKRLELVATINSNGGSTNYPDSVKGRFTISRDNAKNTLYLQMSSLKSEDTAMYYCARFFRIRNAMDYWGQGTSVTVSS VL: DIQMTQSPASLSASVGETVTITCRASENIYSYLAWYQQKQGKSPQFLVYNAKTLAEGVPSRFSGSGSGTQFSLKINSLQPEDFGSYYCQHYYGTPTWTFGGGTKLEIK	pKd	9.26
mouse antibody B9D1D11F8D8 (antibody, V domains shown, Mouse hybridoma mAb) VH: EVKLVESGGGLVKPGGSLKLSCAASGFTFSSYAMSWVRQTPEKRLEWVASISSGDSTYYLDSVKGRFTISRDNARNILYLQVSSLRSEDTAMYYCERSGGSAPYWGQGTLVTVSA VL: QIVLTQSPAIMSASPGDMVTISCSASSSVNYMYWYQQKPGSSPKPWIYRTSNLASGVPARFSGSGSGTSYSLTISSMEAEDAATYYCQQYHSFPLTFGAGTKLELK	pKd	9.18
mouse antibody B8G11F2B7G5E8 (antibody, V domains shown, Mouse hybridoma mAb; also called Mouse B8G11F2B7G5E8; mAb B8G11F2B7G5E8) VH: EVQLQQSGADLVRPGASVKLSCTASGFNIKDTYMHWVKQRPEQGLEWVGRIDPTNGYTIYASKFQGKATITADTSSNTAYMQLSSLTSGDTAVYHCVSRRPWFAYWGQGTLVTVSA VL: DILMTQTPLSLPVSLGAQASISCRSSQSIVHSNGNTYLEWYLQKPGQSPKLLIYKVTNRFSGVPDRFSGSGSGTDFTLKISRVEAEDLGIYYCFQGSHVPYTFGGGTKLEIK	pKd	8.83
